Kindly supply the reported TGI values for the records listed here.
Test system: MALME-3M melanoma
Test: NCI tumour cell line growth inhibition, 48 h
A number alone suffices; assume µM.

Ask | Using the record for `CC(=O)OCC1O[C@@H]([S-])C(OC(C)=O)[C@H](OC(C)=O)[C@@H]1OC(C)=O.[Au+].c1ccc(CN2[CH-]N(Cc3ccccc3)C(c3ccccc3)=C2c2ccccc2)cc1` , state its measured TGI.
Reply | 4.06

Ask | Using the record for `C/C(Cc1ccc(Cl)cc1)=C(/c1ccc(Cl)cc1)c1ccc(OCCN(C)C)cc1` , state its measured TGI.
Reply | 8.63

###

Kindly supply the reported GI50 values for the records listed here.
Test system: NCI-H460 lung

Ask | Using the record for `O=C(c1ccccc1)c1nc2ccc(C(F)(F)F)cc2[n+]([O-])c1C(F)(F)F` , state its measured GI50.
Reply | 23.5 µM

Ask | Using the record for `Cc1nc(N)sc1C(=O)Nc1cc(C(=O)NCCCN(C)C)n(C)c1` , state its measured GI50.
Reply | > 100 µM

Ask | Using the record for `CC(=O)[O][Hg][c]1ccccc1` , state its measured GI50.
Reply | 0.934 µM

Ask | Using the record for `COc1cc2nc3cc([N+](=O)[O-])ccc3c(NCCCNCC(C)(C)O)c2cc1OC` , state its measured GI50.
Reply | 0.299 µM

Ask | Using the record for `COc1ccc(-c2csc(-c3cc(Cl)cc(Cl)c3Cl)n2)cc1` , state its measured GI50.
Reply | 46.5 µM

Ask | Using the record for `COc1ccc2c(c1)[n+](=O)c(C(=O)/C=C/c1cc(OC)c(OC)c(OC)c1)c(C)n2[O-]` , state its measured GI50.
Reply | 23 µM

Ask | Using the record for `O=C(CCCCCCSc1nc(-c2ccc(Cl)cc2)cc(-c2ccc(Cl)cc2)n1)NO` , state its measured GI50.
Reply | 1.41 µM

Ask | Using the record for `O=C1C(Cl)=C(Nc2cccc(O)c2)C(=O)N1c1ccccc1Cl` , state its measured GI50.
Reply | 41.2 µM

Ask | Using the record for O=C(O)C1(Cc2cccc(Nc3nccs3)n2)CCC(Oc2cccc(Cl)c2F)CC1 (stereo not drawn) , state its measured GI50.
Reply | 0.344 µM

Ask | Using the record for `C=C1C(=O)O[C@H]2[C@H]1CC/C(COC(=O)c1ccc(C#N)cc1)=C\CC[C@@]1(C)O[C@@H]21` , state its measured GI50.
Reply | 3.46 µM

Ask | Using the record for C[C@H]1C(Oc2ccc(O)cc2)OC2OC3(C)CCC4[C@H](C)CCC1C24OO3 (stereo partly drawn) , state its measured GI50.
Reply | 15.1 µM

Ask | Using the record for `CCCCCCCC(=O)SCC/C=C/[C@@H]1CC(=O)NCc2nc(co2)C2=N[C@@](C)(CS2)C(=O)N[C@@H](C(C)C)C(=O)O1` , state its measured GI50.
Reply | 0.0137 µM

Ask | Using the record for `CCCCC#CC#Cc1cccc(=O)o1` , state its measured GI50.
Reply | 20.9 µM

Ask | Using the record for `COc1ccc(-c2c(-c3cc(OC)c4c(c3)OCO4)noc2N)cc1` , state its measured GI50.
Reply | 0.0339 µM

Ask | Using the record for `CCC(C(=O)[O-])C(=O)[O-].CCC(C(=O)[O-])C(=O)[O-].N.N.NCCCCCCN.[Pt+4].[Pt+4]` , state its measured GI50.
Reply | 7.99 µM

Ask | Using the record for `Cc1nc2n(c(=O)c1CCN1CCC(c3noc4cc(F)ccc34)CC1)CCCC2` , state its measured GI50.
Reply | > 50 µM

Ask | Using the record for `CCOC(=O)c1cc2c(n1Cc1ccccc1)-c1oncc1CC2` , state its measured GI50.
Reply | 3.08 µM

Ask | Using the record for CCC[CH2][Sn]([CH2]CCC)([O]C(=O)C1CCC(=O)N1)[O]C(=O)C1CCC(=O)N1 (stereo not drawn) , state its measured GI50.
Reply | 1.27 µM

###

Test system: SN12C renal
Test: NCI tumour cell line growth inhibition, 48 h
Kindly supply the reported TGI values for the records listed here.

Ask | Using the record for `CNCCCNc1nc2ccccc2c2c(=O)c3cc(Cl)ccc3sc12` , state its measured TGI.
Reply | 2.93 µM

Ask | Using the record for `Cc1ccc(S(=O)(=O)Oc2nc3ccccc3nc2N(S(=O)(=O)c2ccc(C)cc2)S(=O)(=O)c2ccc(C)cc2)cc1` , state its measured TGI.
Reply | > 100 µM

Ask | Using the record for COc1cc([C@@H]2c3cc4c(cc3[C@@H](NC(=O)c3cccc(F)c3)C3COC(=O)[C@@H]32)OCO4)cc(OC)c1O (stereo partly drawn) , state its measured TGI.
Reply | 2.73 µM

Ask | Using the record for [N-]=[N+]=NC(CBr)c1cn([C@H]2C[C@H](O)[C@@H](CO)O2)c(=O)[nH]c1=O (stereo partly drawn) , state its measured TGI.
Reply | > 100 µM

Ask | Using the record for `O=C(O)C12CCCC(CCC1)C2` , state its measured TGI.
Reply | > 100 µM

Ask | Using the record for `CS(=O)(=O)CCNCc1ccc(-c2ccc3ncnc(Nc4ccc(OCc5ccccc5)c(Cl)c4)c3c2)o1` , state its measured TGI.
Reply | > 25 µM

Ask | Using the record for c1ccc(COCC2OC3c4ccccc4COC3C2OCc2ccccc2)cc1 (stereo not drawn) , state its measured TGI.
Reply | > 100 µM

Ask | Using the record for `O=C(NC(Nc1ccc(F)c(Cl)c1)(C(F)(F)F)C(F)(F)F)OCc1ccccc1` , state its measured TGI.
Reply | > 100 µM

Ask | Using the record for `CCCCS(=O)(=O)Nc1ccc(Nc2c3ccccc3nc3ccccc23)c(OC)c1` , state its measured TGI.
Reply | 5.77 µM

Ask | Using the record for `Cc1ccsc1/C=N/Nc1nncc2ccccc12` , state its measured TGI.
Reply | > 100 µM

Ask | Using the record for `CN(C[C@@H]1COCCO1)S(=O)(=O)Nc1ccc2ccc3ncc(-c4cnn(C)c4)cc3c(=O)c2c1` , state its measured TGI.
Reply | > 100 µM

Ask | Using the record for `O=[N+]([O-])/C(C(Cl)=C(Cl)Cl)=C(/Sc1ccccc1)N1CCCCC1` , state its measured TGI.
Reply | > 100 µM

Ask | Using the record for `Cc1ccc(/C=C/C(=O)c2cc(CN(C)C)c(O)c(CN(C)C)c2)cc1` , state its measured TGI.
Reply | 44 µM

Ask | Using the record for `COc1ccc(-c2cc(-c3cc(OC)c(OC)c(OC)c3)c(C#N)c(N3CCOCC3)n2)cc1O` , state its measured TGI.
Reply | > 100 µM

Ask | Using the record for `Cc1c(C)c(S(=O)(=O)N(CCCN)OCCCN)c(C)c2c1OC(C)(C)C2` , state its measured TGI.
Reply | > 100 µM

Ask | Using the record for COc1ccc2c(c1)CCC1=CC3(CCC12C)SCCS3 (stereo not drawn) , state its measured TGI.
Reply | > 10 µM

Ask | Using the record for `O=C(c1ccccc1)c1nc2ccc(C(F)(F)F)cc2[n+]([O-])c1C(F)(F)F` , state its measured TGI.
Reply | > 100 µM

Ask | Using the record for `N[C@@H]1CCCN(c2c(/C=C3\SC(=O)NC3=O)cccc2-c2ccccc2)C1` , state its measured TGI.
Reply | 29.5 µM

Ask | Using the record for `CC(=O)OCC1O[C@@H]([S-])C(OC(C)=O)[C@H](OC(C)=O)[C@@H]1OC(C)=O.[Au+].c1ccc(CN2[CH-]N(Cc3ccccc3)C(c3ccccc3)=C2c2ccccc2)cc1` , state its measured TGI.
Reply | 5.58 µM

Ask | Using the record for `Cc1ccc(O)c(C(=O)CCCC(=O)c2cc(C)ccc2O)c1` , state its measured TGI.
Reply | > 100 µM

Ask | Using the record for O=C(O)C1(Cc2cccc(Nc3nccs3)n2)CCC(Oc2cccc(Cl)c2F)CC1 (stereo not drawn) , state its measured TGI.
Reply | 46.6 µM

Ask | Using the record for `COC(=O)[C@@H]1C[C@@H]2c3ccccc3N(S(=O)(=O)c3ccccc3)[C@@H]2N1C(=O)OC` , state its measured TGI.
Reply | > 100 µM

Ask | Using the record for `O=C([O-])c1ccc(C(=O)[O-])cc1.O=C([O-])c1ccc(C(=O)[O-])cc1.[Mo+2].[Mo+2]` , state its measured TGI.
Reply | > 100 µM

Ask | Using the record for `CCOC(=O)/C=C(/C(=O)OCC)n1ccc(=O)n(/C(=C/C(=O)OCC)C(=O)OCC)c1=O` , state its measured TGI.
Reply | 17.9 µM

Ask | Using the record for COC(=O)C(Cc1nc2ccc(Cl)cc2[nH]c1=O)/C(=N/NC(N)=O)C(=O)Nc1ccc(Cl)cc1 (stereo not drawn) , state its measured TGI.
Reply | > 100 µM

Ask | Using the record for Cc1cn(C2CC(N)C(C(=O)O)O2)c(=O)[nH]c1=O (stereo not drawn) , state its measured TGI.
Reply | > 100 µM

Ask | Using the record for `O=C(c1cccc(C(=O)c2ccc3c4c(cccc24)C(=O)N(c2ccccc2)C3=O)c1)c1ccc2c3c(cccc13)C(=O)N(c1ccccc1)C2=O` , state its measured TGI.
Reply | > 100 µM

Ask | Using the record for `Cc1c2c(n(CCN(C)C)c1C)NN=C(C#N)S2(=O)=O` , state its measured TGI.
Reply | > 100 µM

Ask | Using the record for `O=C1CCc2c(sc3[nH]c(=S)n(Cc4ccccc4)c(=O)c23)C1` , state its measured TGI.
Reply | > 100 µM

Ask | Using the record for CC/C(C)=C1\OC(=O)C(C)C(O)C(Cc2cccnc2)NC(=O)C(NC(=O)c2ncccc2O)C(C)OC1=O (stereo not drawn) , state its measured TGI.
Reply | > 100 µM

Ask | Using the record for `O=C(CCN1CCOCC1)Nc1ccc2sc3ccccc3c(=O)c2n1` , state its measured TGI.
Reply | > 100 µM

Ask | Using the record for `CCCCC(=O)Oc1ccc2c(C)cc(=O)oc2c1` , state its measured TGI.
Reply | > 100 µM

Ask | Using the record for CC(=O)OC1CC[C@]2(C)C3CC[C@@]4(C)C(CCC4[C@H](C)CCCC(C)C)[C@@H]3CCC2(Br)C1 (stereo partly drawn) , state its measured TGI.
Reply | > 50 µM

Ask | Using the record for `O=C1CC(=O)N(CCc2ccccc2)S(=O)(=O)N1CCc1ccccc1` , state its measured TGI.
Reply | > 100 µM

Ask | Using the record for OC(c1ccccn1)C1CNc2ccccc21 (stereo not drawn) , state its measured TGI.
Reply | > 100 µM

Ask | Using the record for COc1cc2c(cc1OC)C(N)CC2=O (stereo not drawn) , state its measured TGI.
Reply | > 100 µM

Ask | Using the record for `CC(=O)[O-].O=C([CH-]C(=O)c1ccccc1)c1ccccc1.O=C([CH-]C(=O)c1ccccc1)c1ccccc1.[Y+3]` , state its measured TGI.
Reply | 38 µM

Ask | Using the record for CN1CCC23c4c5ccc(O)c4OC2c2[nH]c4ccccc4c2CC3(O)C1C5 (stereo not drawn) , state its measured TGI.
Reply | > 100 µM
